test system: HeLa Kyoto; test: thermal stability score vs G1/S (z-score of summed log2 fold changes over temperatures); higher = more thermally stable than in G1/S; settings: cell cycle stage: early G1 (4.5 h after nocodazole release);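 further: synchronized HeLa Kyoto cells, proteins quantified by TMT10plex mass spectrometry, three biological replicates, mitosis taken 0.5 h after nocodazole release, G1/S directly after double thymidine block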
Item-by-item account of thermal stability score

>  <POLYMER SEQUENCE>
MSSEMLPAFIETSNVDKKQGINEDQEESQKPRLGEGCEPISKRQMKKLIKQKQWEEQRELRKQKRKEKRKRKKLERQCQMEPNSDGHDRKRVRRDVVHSTLRLIIDCSFDHLMVLKDIKKLHKQIQRCYAENRRALHPVQFYLTSHGGQLKKNMDENDKGWVNWKDIHIKPEHYSELIKKEDLIYLTSDSPNILKELDESKAYVIGGLVDHNHHKGLTYKQASDYGINHAQLPLGNFVKMNSRKVLAVNHVFEIILEYLETRDWQEAFFTILPQRKGAVPTDKACESASHDNQSVRMEEGGSDSDSSEEEYSRNELDSPHEEKQDKENHTESTVNSLPH [TRMT10A]

>  <thermal stability score>
0.883

$$$$
>  <POLYMER SEQUENCE>
MAAAAASLRGVVLGPRGAGLPGARARGLLCSARPGQLPLRTPQAVALSSKSGLSRGRKVMLSALGMLAAGGAGLAMALHSAVSASDLELHPPSYPWSHRGLLSSLDHTSIRRGFQVYKQVCASCHSMDFVAYRHLVGVCYTEDEAKELAAEVEVQDGPNEDGEMFMRPGKLFDYFPKPYPNSEAARAANNGALPPDLSYIVRARHGGEDYVFSLLTGYCEPPTGVSLREGLYFNPYFPGQAIAMAPPIYTDVLEFDDGTPATMSQIAKDVCTFLRWASEPEHDHRKRMGLKMLMMMALLVPLVYTIKRHKWSVLKSRKLAYRPPK [CYC1]

>  <thermal stability score>
-5.79

$$$$
>  <POLYMER SEQUENCE>
MSGNGNAAATAEENSPKMRVIRVGTRKSQLARIQTDSVVATLKASYPGLQFEIIAMSTTGDKILDTALSKIGEKSLFTKELEHALEKNEVDLVVHSLKDLPTVLPPGFTIGAICKRENPHDAVVFHPKFVGKTLETLPEKSVVGTSSLRRAAQLQRKFPHLEFRSIRGNLNTRLRKLDEQQEFSAIILATAGLQRMGWHNRVGQILHPEECMYAVGQGALGVEVRAKDQDILDLVGVLHDPETLLRCIAERAFLRHLEGGCSVPVAVHTAMKDGQLYLTGGVWSLDGSDSIQETMQATIHVPAQHEDGPEDDPQLVGITARNIPRGPQLAAQNLGISLANLLLSKGAKNILDVARQLNDAH [HMBS]

>  <thermal stability score>
-1.68

$$$$
>  <POLYMER SEQUENCE>
MPYQYPALTPEQKKELSDIAHRIVAPGKGILAADESTGSIAKRLQSIGTENTEENRRFYRQLLLTADDRVNPCIGGVILFHETLYQKADDGRPFPQVIKSKGGVVGIKVDKGVVPLAGTNGETTTQGLDGLSERCAQYKKDGADFAKWRCVLKIGEHTPSALAIMENANVLARYASICQQNGIVPIVEPEILPDGDHDLKRCQYVTEKVLAAVYKALSDHHIYLEGTLLKPNMVTPGHACTQKFSHEEIAMATVTALRRTVPPAVTGITFLSGGQSEEEASINLNAINKCPLLKPWALTFSYGRALQASALKAWGGKKENLKAAQEEYVKRALANSLACQGKYTPSGQAGAAASESLFVSNHAY [ALDOA]

>  <thermal stability score>
-1.95

$$$$
